- assay_name: Liver microsomal stability, human
- Assay type: in vitro ADME
- experimental_conditions: human, human liver microsomes, Clint(mic), human liver microsome
measured_quantity: CLint scaled (mL/min/kg)
The figure you give is taken to be in mL/min/kg; do not add the unit.

QUERY: Identify measured CLint scaled associated with N#Cc1ccc(Nc2ncc(CO)c(Oc3c(F)cc(-c4ccc(C#N)cc4)cc3F)n2)cc1 [9g]
RESULT: 0.763

---

- assay_name: Liver microsomal stability, monkey
- Type: in vitro ADME
- experimental_conditions: monkey liver microsomes, Clint(mic), monkey liver microsome
measured_quantity: CLint scaled (mL/min/kg)
The figure you give is taken to be in mL/min/kg; do not add the unit.

QUERY: Identify measured CLint scaled associated with "N#Cc1ccc(Nc2ncc(CO)c(Oc3c(F)cc(-c4ccc(C#N)cc4)cc3F)n2)cc1"
RESULT: 80.5

---

- assay_name: In vivo pharmacokinetics in Sprague-Dawley rats
- experimental_conditions: male, rat, plasma, po, 10 mg/kg
measured_quantity: half-life (h)
The figure you give is taken to be in h; do not add the unit.

QUERY: Identify measured half-life associated with "N#Cc1ccc(Nc2ncc(CO)c(Oc3c(F)cc(-c4ccc(C#N)cc4)cc3F)n2)cc1"
RESULT: 5.21

---

Each entry below lists one item and its recorded pEC50 value.
- System: HIV-1 mutant Y188L
- assay_name: microbe, parasite or virus in culture
- experimental_conditions: Human immunodeficiency virus 1, MT4, read-out: EC50 Y188L
Value format note: pEC50 is -log10 of concentration (mol/L); just state the number.

In [3]: df
Out[3]:
                                   compound  result_number
0  Cc1cc(C#N)cc(C)c1Oc1nc(Nc2ccc(C#N)cc2)nc(N)c1Br [ETR, etravirine, reference compound]           7.70

We next turn to a different compound, shown below.
QUERY: Identify measured pEC50 associated with "N#Cc1ccc(Nc2ncc(CO)c(Oc3ccc(-c4ccncc4)cc3Cl)n2)cc1"
RESULT: 4.37

---

Each entry below lists one item and its recorded pEC50 value.
- Tested on: HIV-1 mutant Y188L
- assay_name: microbe, parasite or virus in culture
- experimental_conditions: Human immunodeficiency virus 1, MT4, read-out: EC50 Y188L
Value format note: pEC50 is -log10 of concentration (mol/L); just state the number.

                                   molecule  result_number
0  N#Cc1ccc(Nc2ncc(CO)c(Oc3ccc(-c4ccc(C#N)cc4)cc3F)n2)cc1           4.38

QUERY: Identify measured pEC50 associated with "N#Cc1ccc(Nc2ncc(CO)c(Oc3c(F)cc(-c4ccncc4)cc3F)n2)cc1"
RESULT: 6.14

---

- System: HIV-1 mutant Y188L
- assay_name: microbe, parasite or virus in culture
- experimental_conditions: Human immunodeficiency virus 1, MT4, read-out: EC50 Y188L
Each entry below lists one item and its recorded EC50 value.
The figure you give is taken to be in nM; do not add the unit.

In [3]: df
Out[3]:
                              line_notation      assayed_system  result_number
0  Cc1cc(-c2ccncc2)cc(C)c1Oc1nc(Nc2ccc(C#N)cc2)ncc1CO  HIV-1 mutant Y188L           1580
1  N#Cc1ccc(Nc2ncc(CO)c(Oc3ccc(-c4ccc(C#N)cc4)cc3C(F)(F)F)n2)cc1  HIV-1 mutant Y188L           85.3
2  Cc1cc(-c2ccc(C#N)cc2)ccc1Oc1nc(Nc2ccc(C#N)cc2)ncc1CO  HIV-1 mutant Y188L            144

We next turn to a different compound, shown below.
QUERY: Identify measured EC50 associated with "COc1cc(-c2ccc(C#N)cc2)ccc1Oc1nc(Nc2ccc(C#N)cc2)ncc1CO"
RESULT: 137
